All figures here come from ChEMBL document CHEMBL1201862.

System: KM12
Assay: NCI tumour cell line growth inhibition, 48 h
The source made the active and inactive calls. No stated cut-off is given here; in the data, active = GI50 up to about 1.1 µM and inactive = higher.
experimental_endpoint: GI50

* CCCC(=O)OC1C(CO)OC(n2cc(F)c(=O)[nH]c2=O)C1F (stereo unspecified) | > 100 µM (inactive)
* CN(CC1(CO)CCC1)c1cc(Cl)nc(N)n1 | > 100 µM (inactive)

In: Which measured GI50 value corresponds to OCCN1CN(c2nc(N3CN(CCO)C3)nc(N3CN(CCO)C3)n2)C1 ?
Out: 21.4 µM (inactive)

In: Similarly, CCCc1c(OC)c(=O)c2c(O)cc(OC)c3c4c(OC)cc(O)c5c(=O)c(OC)c(CCC)c(c1c23)c54 ?
Out: 8.57 µM (inactive)

In: Now consider [O-][S+](Cc1ccccc1)c1ccccc1Cn1cccc1 (stereo unspecified) and answer again.
Out: > 100 µM (inactive)

In: Then this compound: O=S(=O)(O)c1ccc(-c2c3nc(c(-c4ccc(S(=O)(=O)O)cc4)c4ccc([nH]4)c(-c4ccc(S(=O)(=O)O)cc4)c4nc(c(-c5ccc(S(=O)(=O)O)cc5)c5ccc2[nH]5)C=C4)C=C3)cc1
Out: 51.5 µM (inactive)
